- System: barnyardgrass (Echinochloa crus-galli)
- ASSAY COMMENT: Test A postemergence, visual plant response rating
- Assay type: in vivo
- TEST CONTEXT: Postemergence, 125 g ai/ha; 0 to 100 scale (0 no effect, 100 complete control)
Exercise: state measured Barnyardgrass plant response rating for each of the compounds provided.
Give your answer as a number; write no unit.

Hi! What's the reported Barnyardgrass plant response rating for "CCO/N=C(\c1c(O)c(C)nn(C)c1=O)c1cccc2ccccc12" on barnyardgrass (Echinochloa crus-galli)? 40

Moving on to CON=C(c1c(O)c(C)nn(C)c1=O)c1cccc2sccc12 [Compound 58] 20

// same read-out, input: "CON=C(c1c(O)c(C)nn(C)c1=O)c1cccc2cc(F)ccc12" 70

Record: "CO/N=C(/c1cscc1C)c1c(O)c(C)nn(C)c1=O" 0

Try this compound next: CON=C(c1c(O)c(C)nn(C)c1=O)c1cccc2cc(Br)ccc12 [Compound 100] 30
